Target: Neuropeptide Y receptor type 2 (Homo sapiens)
Sequence (P49146 whole entry): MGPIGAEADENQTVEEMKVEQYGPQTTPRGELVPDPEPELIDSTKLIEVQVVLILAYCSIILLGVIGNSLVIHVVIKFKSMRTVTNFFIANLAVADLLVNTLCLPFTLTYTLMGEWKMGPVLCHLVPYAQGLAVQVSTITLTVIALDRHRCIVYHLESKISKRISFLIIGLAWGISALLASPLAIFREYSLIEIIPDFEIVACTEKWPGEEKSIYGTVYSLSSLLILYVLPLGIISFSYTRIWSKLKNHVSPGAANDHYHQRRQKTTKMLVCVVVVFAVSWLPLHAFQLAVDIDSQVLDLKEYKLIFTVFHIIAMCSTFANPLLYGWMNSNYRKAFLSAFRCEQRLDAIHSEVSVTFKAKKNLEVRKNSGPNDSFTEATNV
Assay: Displacement of [3H]UR-MK299 from human neuropeptide Y Y2 receptor expressed in CHO cells measured after 90 mins by scintillation counting analysis
Format: cell-based
Settings: read-out: pKi (converted)
Residues, ends and D or L forms follow the SMILES beside them.
This listing pairs molecules with measured Ki.

[
  {
    "molecule": "CC(C)C[C@H](NC(=O)[C@@H]1CCCNC(=N)NC(=O)NCCCCNC(=O)CCC(=O)N[C@@H](CCCNC(=N)N)C(=O)N1)C(=O)N[C@@H](CCCNC(=N)N)C(=O)N[C@@H](Cc1ccc(O)cc1)C(N)=O (HELM PEPTIDE1{R.[N=C(NCCC[C@H](N[*:1])C(=O)[*:2])N[*:3]].L.R.Y.[am]}|CHEM1{[O=C(CCC(=O)[*:1])NCCCCNC(=O)[*:2]]}$PEPTIDE1,CHEM1,1:R1-1:R1|PEPTIDE1,CHEM1,2:R3-1:R2$$$V2.0)",
    "assayResult": "> 3.16 µM"
  },
  {
    "molecule": "CC(C)C[C@H](NC(=O)[C@@H]1CCC(=O)NCC(=O)N[C@H](CCCNC(=N)N)C(=O)N[C@@H](CCCNC(=N)N)C(=O)N1)C(=O)N[C@@H](CCCNC(=N)N)C(=O)N[C@@H](Cc1ccc(O)cc1)C(N)=O",
    "assayResult": "> 3.16 µM"
  }
]

Which measured Ki value corresponds to CC(C)C[C@H](NC(=O)[C@H](CCCNC(=N)NC(=O)NCCCCN)NC(=O)[C@H](Cc1c[nH]c2ccccc12)NC(=O)[C@H](CCCNC(=N)N)NC(=O)CCC(=O)O)C(=O)N[C@@H](CCCNC(=N)N)C(=O)N[C@@H](Cc1ccc(O)cc1)C(N)=O ?
> 3.16 µM

====

target: Neuropeptide Y receptor type 4 (Homo sapiens, UniProt P50391); assay: Intrinsic activity at human neuropeptide Y Y4 receptor expressed in HEK293T-ARRB1 cells assessed as stimulation of beta-arrestin 1 recruitment by multimode plate reader relative to hPP; format: functional, cell-based
Sequence (P50391 whole entry): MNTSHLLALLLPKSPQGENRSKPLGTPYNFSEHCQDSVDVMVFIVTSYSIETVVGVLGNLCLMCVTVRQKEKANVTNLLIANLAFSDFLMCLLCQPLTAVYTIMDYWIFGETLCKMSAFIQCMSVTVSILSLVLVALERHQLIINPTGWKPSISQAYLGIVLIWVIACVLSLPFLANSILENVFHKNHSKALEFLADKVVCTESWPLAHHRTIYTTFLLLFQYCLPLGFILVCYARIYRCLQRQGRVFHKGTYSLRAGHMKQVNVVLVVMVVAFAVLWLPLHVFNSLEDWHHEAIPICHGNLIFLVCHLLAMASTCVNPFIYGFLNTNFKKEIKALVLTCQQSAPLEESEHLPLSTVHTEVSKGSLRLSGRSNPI
Residues, ends and D or L forms follow the SMILES beside them.
valueKind: Intrinsic activity

Recorded Intrinsic activity of N=C(N)NCCC[C@@H]1NC(=O)CCC(=O)NCCCCNC(=O)NC(=N)NCCC[C@@H](C(=O)N[C@@H](Cc2c[nH]c3ccccc23)C(=O)N[C@@H](CCCNC(=N)N)C(=O)N[C@@H](Cc2ccc(O)cc2)C(N)=O)NC(=O)[C@H](Cc2ccc(O)cc2)NC1=O (HELM PEPTIDE1{R.Y.[N=C(NCCC[C@H](N[*:1])C(=O)[*:2])N[*:3]].W.R.Y.[am]}|CHEM1{[O=C(CCC(=O)[*:1])NCCCCNC(=O)[*:2]]}$PEPTIDE1,CHEM1,1:R1-1:R1|PEPTIDE1,CHEM1,3:R3-1:R2$$$V2.0) , please.
84%

====

molecular target: Neuropeptide Y receptor type 4 (Homo sapiens); assay: Intrinsic activity at human neuropeptide Y Y4 receptor expressed in HEK293T cells co-expressing CRE-controlled gene reporter firefly luciferase assessed as relative luminescence measured after 15 mins relative to hPP; type: functional, cell-based
valueKind: Intrinsic activity (%)

[
  {
    "molSmiles": "CC(C)C[C@H](NC(=O)[C@@H]1CCCNC(=N)NC(=O)NCCCCNC(=O)CCC(=O)N[C@@H](CCCNC(=N)N)C(=O)N[C@@H](Cc2ccc(O)cc2)C(=O)N1)C(=O)N[C@@H](CCCNC(=N)N)C(=O)N[C@@H](Cc1ccc(O)cc1)C(N)=O",
    "valueKind": "Intrinsic activity",
    "unitAnnotation": "%",
    "assayResult": 89
  },
  {
    "molSmiles": "CC(C)C[C@H](NC(=O)[C@@H]1CCCNC(=N)NC(=O)NCCCCNC(=O)CCC(=O)N[C@@H](CCCNC(=N)N)C(=O)N[C@@H](Cc2c[nH]c3ccccc23)C(=O)N1)C(=O)N[C@@H](CCCNC(=N)N)C(=O)N[C@@H](Cc1ccc(O)cc1)C(N)=O",
    "valueKind": "Intrinsic activity",
    "unitAnnotation": "%",
    "assayResult": 95
  },
  {
    "molSmiles": "CC(C)C[C@H](NC(=O)[C@H](CCCNC(=N)NC(=O)NCCCCN)NC(=O)[C@H](Cc1c[nH]c2ccccc12)NC(=O)[C@H](CCCNC(=N)N)NC(=O)CCC(=O)O)C(=O)N[C@@H](CCCNC(=N)N)C(=O)N[C@@H](Cc1ccc(O)cc1)C(N)=O",
    "valueKind": "Intrinsic activity",
    "unitAnnotation": "%",
    "assayResult": 95
  },
  {
    "molSmiles": "CC(C)C[C@H](NC(=O)[C@H](CCCNC(=N)NC(=O)NCCCCN)NC(=O)[C@H](Cc1ccc(O)cc1)NC(=O)[C@H](CCCNC(=N)N)NC(=O)CCC(=O)O)C(=O)N[C@@H](CCCNC(=N)N)C(=O)N[C@@H](Cc1ccc(O)cc1)C(N)=O",
    "valueKind": "Intrinsic activity",
    "unitAnnotation": "%",
    "assayResult": 88
  }
]

====

molecular target: UniProt P50391; assay: Agonist activity at human neuropeptide Y Y4 receptor expressed in CHO-mtAEQ cells co-expressing Gqi5 by calcium aequorin assay; type: functional, cell-based
valueKind: EC50 (nM)

[
  {
    "molecule": "N=C(N)NCCC[C@H](NC(=O)CCC(=O)O)C(=O)N[C@@H](Cc1ccc(O)cc1)C(=O)N[C@@H](CCCNC(=N)NC(=O)NCCCCN)C(=O)N[C@@H](Cc1c[nH]c2ccccc12)C(=O)N[C@@H](CCCNC(=N)N)C(=O)N[C@@H](Cc1ccc(O)cc1)C(N)=O (single isomer, unassigned)",
    "EC50 / nM": 75.9
  }
]

1. CC(C)C[C@H](NC(=O)[C@H](CCCNC(=N)NC(=O)NCCCN)NC(=O)[C@H](Cc1ccc(O)cc1)NC(=O)[C@H](CCCNC(=N)N)NC(=O)CCC(=O)O)C(=O)N[C@@H](CCCNC(=N)N)C(=O)N[C@@H](Cc1ccc(O)cc1)C(N)=O
2. CC(C)C[C@H](NC(=O)[C@@H]1CCCNC(=N)NC(=O)NCCCCNC(=O)CCC(=O)N[C@@H](CCCNC(=N)N)C(=O)N[C@@H](Cc2ccc(O)cc2)C(=O)N1)C(=O)N[C@@H](CCCNC(=N)N)C(=O)N[C@@H](Cc1ccc(O)cc1)C(N)=O
Between the entries labelled 1 and 2 , which has a larger EC50 value on record? Return value: the label identifying the chosen record.
1
(1: 178 nM, 2: 2.69 nM)

====

assay: Stability in human plasma assessed as intact peptide measured after 6 hr at 37 degC by RP-HPLC analysis; format: ADME, cell-free; settings: read-out: Stability
Residues, ends and D or L forms follow the SMILES beside them.
valueKind: remaining at 6 h (%)

[
  {
    "compound": "CC(=O)N[C@@H](CCCNC(=N)N)C(=O)N[C@@H](Cc1ccc(O)cc1)C(=O)N[C@@H](CCCN/C(N)=N/C(=O)NCCCCN)C(=O)N[C@@H](CC(C)C)C(=O)N[C@@H](CCCNC(=N)N)C(=O)N[C@@H](Cc1ccc(O)cc1)C(N)=O (HELM PEPTIDE1{[ac].R.Y.[NCCCCNC(=O)/N=C(\\N)NCCC[C@H](N[*:1])C(=O)[*:2]].L.R.Y.[am]}$$$$V2.0)",
    "remaining at 6 h / %": 9
  }
]

I. CC(C)C[C@H](NC(=O)[C@@H]1CCCNC(=N)NC(=O)NCCCCNC(=O)CCC(=O)N[C@@H](CCCNC(=N)N)C(=O)N[C@@H](Cc2ccc(O)cc2)C(=O)N1)C(=O)N[C@@H](CCCNC(=N)N)C(=O)N[C@@H](Cc1ccc(O)cc1)C(N)=O
II. CC(C)C[C@H](NC(=O)[C@@H]1CCCNC(=N)NC(=O)NCCCCNC(=O)CCC(=O)N[C@@H](CCCNC(=N)N)C(=O)N[C@@H](Cc2c[nH]c3ccccc23)C(=O)N1)C(=O)N[C@@H](CCCNC(=N)N)C(=O)N[C@@H](Cc1ccc(O)cc1)C(N)=O
Higher remaining at 6 h: I or II ? Returns: label corresponding to the selected item.
II
(II: 19%, I: 3%)
